# Method: Pharmacokinetics of decitabine in IVAP rabbit model
# Assay type: in vivo, rabbits
# Assay setup: rabbit, plasma (systemic), 2.5 mg/kg, LSI 2.5 mg/kg; read-out: systemic Bioavailability, Mean
Measured attribute: bioavailability (%)
Response body: numeric value in %, unit text excluded.

Prompt: Data request, read-out bioavailability, for "Nc1ncn([C@H]2C[C@H](O)[C@@H](CO)O2)c(=O)n1"
Completion: 50.4

---

# Method: Pharmacokinetics of decitabine in IVAP rabbit model
# Format: in vivo, rabbits
# Assay setup: rabbit, plasma, iv, 1.5 mg/kg, IV 1.5 mg/kg; read-out: IV AUC0-inf, individual
Measured attribute: AUC(0-inf)
Answers without a unit are incomplete; give the number and then its unit.

Prompt: Quick one: AUC(0-inf) for "Nc1ncn([C@H]2C[C@H](O)[C@@H](CO)O2)c(=O)n1" ?
Completion: 557 ng·h/mL

# credit: patent US20040162263A1
